Listed next: entries and their corresponding viability.
- experimental details: SK-BR-3 cell growth inhibitors, pilot screen, 24 h, human (AID 572);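 also: compound exposure lasted between 18 and 24 h rather than exactly 24 h; 100% = carrier-treated control wells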
- assay setup: SK-BR-3 viability, CellTiter-Glo luminescence, at 10 µM, active compounds read low
property label: viability (%)

| compound | uom | measured value |
| --- | --- | --- |
| CCN(CCCNC(=O)c1cn(CC)c2ccc(S(=O)(=O)N(C)C)cc2c1=O)c1cccc(C)c1 | % | 98 |
| O=S(=O)(c1ccccc1)c1nc(-c2cccs2)oc1NCC1CCCO1 (stereo not drawn) | % | 84.5 |
| CCCCOc1cccc(NC(=O)CSc2nccn2C)c1 | % | 107 |
| Cc1nc2ccc(CCO)cc2s1 | % | 97.5 |
| CCC(=O)Nc1c2c(nn1-c1ccccc1C)CSC2 | % | 86.5 |
| O=C(O)C1CC=CCC1C(=O)Nc1cc(Cl)ccc1Cl (stereo not drawn) | % | 86 |
| O=C(OCc1ccccc1F)c1ccc2c(c1)OCCO2 | % | 122 |
| O=C(O)C1CCCN1S(=O)(=O)c1ccc2ccccc2c1 (stereo not drawn) | % | 106 |
| O=C(CSc1nc2ccccc2s1)N1CCOCC1 | % | 119 |
| ON1C2CCCCC2N(O)C1c1c(F)c(F)c(F)c(F)c1F (stereo not drawn) | % | 89.5 |
| Cc1cc(Br)ccc1NC(=O)CCN1C(=O)c2ccncc2C1=O | % | 104 |
| COc1cc2nc(C3CCC3)n(NC(=O)C3CCCC(OC)C3)c(=O)c2cc1OC (stereo not drawn) | % | 100 |
| O=C(O)CCC1(C(=O)O)OCCc2ccccc21 (stereo not drawn) | % | 112 |
| CCCCOC(=O)CN1C(=O)c2ccc(C(=O)OCCCC)cc2C1=O | % | 87 |
| Cc1sc2ncnc(OCC(=O)N3CCN(S(=O)(=O)c4ccc(Cl)cc4)CC3)c2c1C | % | 92.5 |
| CCN(Cc1nc2ccccc2c(=O)[nH]1)Cc1cc(=O)oc2cc(C)c(C)cc12 | % | 107 |
| Cc1cc(Nc2ccc(N3CCC(C)CC3)cc2)n2ncnc2n1 | % | 100 |
| CC(=O)c1cccc(NC(=O)c2ccc(NS(C)(=O)=O)cc2)c1 | % | 118 |
| CCCN1C2CCCC1CC(NC(=O)Nc1cccc(C(C)=O)c1)C2 (stereo not drawn) | % | 105 |
| O=C(CSc1nnc(-c2ccco2)c(-c2ccco2)n1)Nc1ccccc1 | % | 102 |
| O=C(COC(=O)C12CC3CC(CC(O)(C3)C1)C2)N1CCN(S(=O)(=O)c2ccc(Cl)cc2)CC1 | % | 87.5 |
| CCCC(=O)OCCn1c(Br)nc2c1c(=O)[nH]c(=O)n2C | % | 98.5 |
| O=C(Nc1ccc(Cl)cc1)C1CC=CCC1C(=O)OCC(F)(F)C(F)F (stereo not drawn) | % | 93 |

----------
- experimental details: HUVEC growth inhibition – cell-based, human, primary screen (AID 575);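 also: 100% = median of untreated cell wells with 0.1% DMSO on each plate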
- assay setup: HUVEC proliferation, CellTiter-Glo luminescence, 72 h; at 10 µM; active compounds read low
Listed next: entries and their corresponding viability.

| compound | uom | viability |
| --- | --- | --- |
| Cc1cc(NC(=O)COc2cccc(Oc3ccccc3)c2)no1 | % | 50.9 |
| CCS(=O)(=O)NCCc1cc2c(OC)ccc(OC)c2[nH]c1=O | % | 106 |
| CC(C)C1N=C2c3ccccc3N=C(SCc3cc(=O)n4ccccc4n3)N2C1=O (stereo unspecified) | % | 97.6 |
| O=C(NC1CCCCCC1)C1c2ccccc2C(=O)N1Cc1cccnc1 (stereo unspecified) | % | 74.3 |
| CCOc1ccccc1CN1C(=O)c2ccccc2C1C(=O)NCC1CCCO1 (stereo unspecified) | % | 98.3 |
| Cc1cc(C(=O)N2CCN(c3ncccn3)CC2)cs1 | % | 104 |
| COc1cc(OC)cc(C(=O)NCc2n[nH]c(=S)n2-c2ccccc2OC)c1 | % | 109 |
| O=C(NC1CCCC1)c1c[nH]c2ccc(F)cc2c1=O | % | 92.6 |
| COCCN(C(=O)Cn1nnc2ccccc21)C(C(=O)NC1CCCC1)c1cc(OC)ccc1OC (stereo unspecified) | % | 101 |
| O=C(CN1C(=O)c2ccccc2C1=O)Nc1ccccc1C(=O)N1CCCC1 | % | 96 |
| Cc1cc(NC(=O)NC(=O)c2cccc(OC(F)(F)C(F)F)c2)n[nH]1 | % | 80.4 |
| O=C(NCC1CCCO1)C1CCN(c2ccc(S(=O)(=O)N3CCCC3)cc2)CC1 (stereo unspecified) | % | 99.2 |
| O=C(O)c1cc(=O)cc(C(=O)O)[nH]1 | % | 102 |
| c1cnn(-c2cc(N3CCOCC3)ncn2)c1 | % | 90.2 |
| CCOc1cc(C2C(C(=O)c3ccccc3)=C(C(=O)OC)Nc3nnnn32)ccc1O (stereo unspecified) | % | 91.6 |
| CCOC(=O)c1ccc(-c2c(C(=O)OCC)oc3cc(O)c(CC)cc3c2=O)o1 | % | 76.6 |
| CN(C)c1nc(Oc2ccc(=O)n(C)n2)nc(N2CCOCC2)n1 | % | 95.7 |
| CC1(C)Cc2c(c(-c3ccccc3)nc(N3CCCC3)c2C(N)=O)CO1 | % | 92.3 |
| CC(=O)Oc1ccc(-c2ccc(C(=O)O)cc2)cc1 | % | 94.5 |
| N#Cc1cn(CC(=O)N2CCCC2)c2ccccc12 | % | 100 |
| Fc1ccccc1-c1nc(-c2ccccc2)no1 | % | 81.4 |
| Cc1ccc(C(=O)C2COC(=O)C2)cc1 (stereo unspecified) | % | 95.7 |
| Cc1nnc(SCC(=O)N(C(C)C)C(C)C)nc1C | % | 95 |
| CCOc1ccc(S(=O)(=O)Nc2cccc(Cl)c2)cc1 | % | 50.7 |
| Cc1cc(NC(=O)Cn2cnc3c(cnn3C(C)(C)C)c2=O)no1 | % | 102 |
| Cc1nc2ncnn2c(N2CCC(C(=O)NC3CCCC3)CC2)c1Cc1ccccc1 | % | 91.5 |
| CCN(c1cccc(C(F)(F)F)c1)S(=O)(=O)c1ccc2c(c1)CCN2C(=O)C1CC1 | % | 65.8 |
| O=C1OCCC1Sc1ncnc2sc3c(c12)CCC3 (stereo unspecified) | % | 97.6 |
| NC(=O)c1cccc(S(=O)(=O)N2CCCCC2)c1 | % | 96.9 |
| COc1ccc(C2/C(=C(/O)c3cnn(-c4ccccc4)c3C)C(=O)C(=O)N2CCN(C)C)cc1OC (stereo unspecified) | % | 102 |
| Cc1ccc(S(=O)(=O)N(CC(=O)N2CCC(C(N)=O)CC2)c2cccc(C(F)(F)F)c2)cc1 | % | 87.8 |
| CCCN1C2=C(C(=O)CCC2)C(c2ccc(O)c(Br)c2)C2=C1CCCC2=O | % | 96.8 |
| O=c1oc2ccccc2c2nccnc12 | % | 103 |
| COc1ccc2cnn(-c3ccccc3)c(=O)c2c1OC | % | 126 |
| Cn1cnnc1SCC(=O)Nc1ccccc1Sc1ccccc1 | % | 113 |
| O=C(Nc1cccc(C(=O)N2CCOCC2)c1)c1cccnc1 | % | 91 |
| CC1N=C2c3ccccc3N=C(SCc3cc(=O)n4cc(Cl)ccc4n3)N2C1=O (stereo unspecified) | % | 79.4 |
| Cc1ccccc1NC(=O)c1c(F)c(F)c(F)c(F)c1F | % | 103 |
| O=c1cc(COn2nnc3ccc(C(F)(F)F)cc32)nc2sccn12 | % | 104 |
| CCCOC(=O)c1[nH]c2c(c1C)C(=O)CC(c1ccc(OC)c(OC)c1)C2 (stereo unspecified) | % | 84.7 |
| CCC(=O)Nc1c2c(nn1-c1ccccc1C)CSC2 | % | 104 |
| Cc1cc(C)c2c(N)c(C(=O)N3CCN(c4ncccn4)CC3)sc2n1 | % | 98.2 |
| Cc1cc(C)nc(N2CCCC(C(=O)Nc3ccc4c(c3)OCO4)C2)n1 (stereo unspecified) | % | 96.9 |
| O=C1OCc2cc(NC(=O)C3CCCO3)ccc21 (stereo unspecified) | % | 101 |
| CN(C)c1ccc(/C(=N\O)c2ccccc2)cc1 | % | 93.9 |
| CCNS(=O)(=O)c1c(C)cc(N2CCCC2=O)cc1C | % | 112 |

----------
Listed next: entries and their corresponding viability.
- experimental details: HUVEC growth inhibition – cell-based, human, primary screen (AID 575);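 also: 100% = median of untreated cell wells with 0.1% DMSO on each plate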
- assay setup: HUVEC proliferation, CellTiter-Glo luminescence, 72 h; at 10 µM; active compounds read low

| compound | viability, % |
| --- | --- |
| COc1ccc(S(=O)(=O)CCC(=O)O)cc1 | 93.7 |
| O=C(Nc1ccc(N2CCOCC2)cc1)c1cc2ccccc2o1 | 109 |
| CCOC(=O)C1CCN(c2nc3ccccc3nc2C(C#N)C(=O)OCCOC)CC1 (stereo not drawn) | 78.3 |
| N#Cc1c(NC(=O)c2ccc(Br)o2)n(-c2ccccc2)c2nc3ccccc3nc12 | 71.1 |
| Cc1cc2c(cc(C(=O)NCc3cccnc3)n2Cc2ccc(Cl)cc2)o1 | 103 |
| COc1ccc2c(c1)CCc1c(C(=O)NCc3cccnc3)noc1-2 | 102 |
| N#CC1(c2ccccc2)CCC(=NO)CC1 (stereo not drawn) | 90.2 |
| COc1ccc(CCn2c(-c3ccco3)nc3nc4ccccc4nc32)cc1 | 62.8 |
| Cc1ccc(C(C)C)c(OCCn2c(=O)oc3ccccc32)c1 | 87.9 |
| COC(=O)c1cccc(NC(=O)CSc2nnc(COc3ccc(C#N)cc3)n2-c2ccccc2)c1 | 105 |
| O=C(O)C1CC=CCC1C(=O)Nc1ccc(S(=O)(=O)N2CCCc3ccccc32)cc1 (stereo not drawn) | 64.4 |
| Cc1noc(C)c1COc1cccc(C(=O)Nc2ccc(C#N)cc2)c1 | 68 |
| CCn1nnnc1NCc1cccn1C | 105 |
| COc1ccc2oc(=O)c(C(=O)N3CCN(c4ccccc4F)CC3)cc2c1 | 108 |
| CCc1nnc(NC(=O)c2cc3c(s2)CCCCC3)s1 | 90.5 |
| Cc1cc(NC(=O)c2ccc3c(c2)C(=O)N(Cc2cccnc2)C3=O)no1 | 106 |
| COc1ccc(-c2nc(C#N)c(N3CCOCC3)o2)cc1OC | 89.8 |
| N#Cc1c(NC(=O)CSc2nc(N)cc(=O)[nH]2)sc2c1CCCCCC2 | 59.9 |
| S=c1[nH]nc(Cc2ccccc2)n1-c1ccccc1 | 113 |
| CC(=O)NC(Cc1c[nH]c2ccccc12)C(=O)OCC(=O)Nc1cc(C)on1 (stereo not drawn) | 101 |
| Cc1ccc(S(=O)(=O)NCC(=O)N(CC(=O)NCc2ccccc2)CC2CCCO2)cc1 (stereo not drawn) | 108 |
| CC(=O)c1cn(CC(=O)NCc2ccc3c(c2)OCO3)c2ccccc12 | 98.4 |
| CNC(=O)CN(c1cc(C)ccc1OC)S(=O)(=O)c1ccc(C)cc1 | 108 |
